- PROTOCOL_DESCRIPTION: Residual rate of the active substance in monomer solution (HPLC)
- Assay type: physicochemical
- PARTICULARS: in 2-Ethylhexyl Methacrylate; 25° C.
MEASUREMENT_NAME: Residual Rate (% by weight) after 7 Days
Numbers only; they are read as % by weight.

Would you please look over these solved cases?
>  <MOLECULE>
CC(C)(C)NCC(O)c1ccccc1Cl (stereo not shown)

>  <MEASUREMENT_NAME>
Residual Rate (% by weight) after 7 Days

>  <EXPERIMENTAL_VALUE>
100

$$$$
>  <MOLECULE>
COc1ccc2c(c1)c(CC(=O)O)c(C)n2C(=O)c1ccc(Cl)cc1

>  <MEASUREMENT_NAME>
Residual Rate (% by weight) after 7 Days

>  <EXPERIMENTAL_VALUE>
100

$$$$
>  <MOLECULE>
COc1ccc(OC)c(C(O)CN)c1 (stereo not shown)

>  <MEASUREMENT_NAME>
Residual Rate (% by weight) after 7 Days

>  <EXPERIMENTAL_VALUE>
99

$$$$

In the following, a different molecule is considered.
Look at this molecule and give its reported Residual Rate (% by weight) after 7 Days. O=[N+]([O-])O[C@H]1CO[C@H]2[C@@H]1OC[C@H]2O[N+](=O)[O-] [ISDN, isosorbide dinitrate] 99

----------
- PROTOCOL_DESCRIPTION: Solvency of the active substance in monomers (visual inspection)
- Format: physicochemical
- Design: key: Excellent: The active substance was not found to have been precipitated in the solution of active substance both immediately after the preparation and after the preservation for 7 days.; Good: The active substance was found to have been precipitated in the solution of active substance immediately after the preparation, but the active substance was not found to have been precipitated in the solution of active substance after the preservation for 7 days.; Poor: The active substance was found to have been precipitated in the solution of active substance both immediately after the preparation and after the preservation for 7 days
- PARTICULARS: 3 parts active substance in 100 parts Ethyl Acrylate; 25° C., 7 days

>  <MOLECULE>
COc1ccc(OC)c(C(O)CN)c1 (stereo not shown)

>  <Solvency of the active substance>
Excellent

$$$$
>  <MOLECULE>
COc1ccc2c(c1)c(CC(=O)O)c(C)n2C(=O)c1ccc(Cl)cc1

>  <Solvency of the active substance>
Poor

$$$$
>  <MOLECULE>
O=[N+]([O-])O[C@H]1CO[C@H]2[C@@H]1OC[C@H]2O[N+](=O)[O-] [ISDN, isosorbide dinitrate]

>  <Solvency of the active substance>
Excellent

$$$$
>  <MOLECULE>
CC(C)(C)NCC(O)c1ccccc1Cl (stereo not shown)

>  <Solvency of the active substance>
Excellent

$$$$

----------
- PROTOCOL_DESCRIPTION: Residual rate of the active substance in monomer solution (HPLC)
- Format: physicochemical
- PARTICULARS: in Butyl Methacrylate
MEASUREMENT_NAME: Residual Rate (% by weight) Immediately after Preparation
Numbers only; they are read as % by weight.

Look at this compound and give its reported Residual Rate (% by weight) Immediately after Preparation. O=[N+]([O-])O[C@H]1CO[C@H]2[C@@H]1OC[C@H]2O[N+](=O)[O-] [ISDN, isosorbide dinitrate] 100

Look at this compound and give its reported Residual Rate (% by weight) Immediately after Preparation. CC(C)(C)NCC(O)c1ccccc1Cl (stereo not shown) 100

Look at this compound and give its reported Residual Rate (% by weight) Immediately after Preparation. COc1ccc(OC)c(C(O)CN)c1 (stereo not shown) 98

Look at this compound and give its reported Residual Rate (% by weight) Immediately after Preparation. COc1ccc2c(c1)c(CC(=O)O)c(C)n2C(=O)c1ccc(Cl)cc1 100
